ASSAY PROTOCOL: Metabolic stability in mouse liver microsomes assessed as half life measured per mg protein at 1 uM measured upto 60 mins by LC-MS/MS analysis
Assay type: ADME, Microsome
MEASUREMENT NAME: half-life at 1 µM (min)

Reference set, count: 3
[[record]]
compound = "Nc1ccc(S(=O)(=O)N2Cc3ccccc3C[C@H]2C(=O)Nc2c3c(cc4c2CCC4)CCC3)cc1"
measurement_name = "half-life at 1 µM"
value_observed = 5.1

[[record]]
compound = "CC(C)NCC(O)COc1cccc2ccccc12 (stereo not given) [PROPRANOLOL]"
measurement_name = "half-life at 1 µM"
value_observed = 7.3

[[record]]
compound = "Nc1ccc(S(=O)(=O)N[C@@H](Cc2ccc(O)cc2)C(=O)Nc2c3c(cc4c2CCC4)CCC3)cc1"
measurement_name = "half-life at 1 µM"
value_observed = 11.2


P = CCOc1ccc2ccc(=O)oc2c1
Q = CC(C)[C@H](NS(=O)(=O)c1ccc([N+](=O)[O-])cc1)C(=O)Nc1c2c(cc3c1CCC3)CCC2
Which one would you say has the larger half-life at 1 µM value: P , or Q ? Your answer should be the label of the entry you select. Q

---

ASSAY PROTOCOL: Metabolic stability in mouse liver microsomes assessed as intrinsic clearance measured per mg protein at 1 uM measured upto 60 mins by LC-MS/MS analysis
Type: ADME, Microsome
EXPERIMENTAL CONDITIONS: read-out: CLH
MEASUREMENT NAME: microsomal CLint at 1 µM (µL/min/mg)

Would you please look over these solved cases?
[[record]]
smiles_notation = "CC(C)[C@H](NS(=O)(=O)c1ccc([N+](=O)[O-])cc1)C(=O)Nc1c2c(cc3c1CCC3)CCC2"
value_observed = 4.8

[[record]]
smiles_notation = "Nc1ccc(S(=O)(=O)N2Cc3ccccc3C[C@H]2C(=O)Nc2c3c(cc4c2CCC4)CCC3)cc1"
value_observed = 270


A = CCOc1ccc2ccc(=O)oc2c1
B = Nc1ccc(S(=O)(=O)N[C@@H](Cc2ccc(O)cc2)C(=O)Nc2c3c(cc4c2CCC4)CCC3)cc1
Larger number for microsomal CLint at 1 µM: A , or B ? Let me know the label of the one you choose. A

---

ASSAY SYSTEM: NACHT, LRR and PYD domains-containing protein 3 (Mus musculus) (UniProt Q8R4B8)
Sequence (Q8R4B8 whole entry, the tested form may be a part): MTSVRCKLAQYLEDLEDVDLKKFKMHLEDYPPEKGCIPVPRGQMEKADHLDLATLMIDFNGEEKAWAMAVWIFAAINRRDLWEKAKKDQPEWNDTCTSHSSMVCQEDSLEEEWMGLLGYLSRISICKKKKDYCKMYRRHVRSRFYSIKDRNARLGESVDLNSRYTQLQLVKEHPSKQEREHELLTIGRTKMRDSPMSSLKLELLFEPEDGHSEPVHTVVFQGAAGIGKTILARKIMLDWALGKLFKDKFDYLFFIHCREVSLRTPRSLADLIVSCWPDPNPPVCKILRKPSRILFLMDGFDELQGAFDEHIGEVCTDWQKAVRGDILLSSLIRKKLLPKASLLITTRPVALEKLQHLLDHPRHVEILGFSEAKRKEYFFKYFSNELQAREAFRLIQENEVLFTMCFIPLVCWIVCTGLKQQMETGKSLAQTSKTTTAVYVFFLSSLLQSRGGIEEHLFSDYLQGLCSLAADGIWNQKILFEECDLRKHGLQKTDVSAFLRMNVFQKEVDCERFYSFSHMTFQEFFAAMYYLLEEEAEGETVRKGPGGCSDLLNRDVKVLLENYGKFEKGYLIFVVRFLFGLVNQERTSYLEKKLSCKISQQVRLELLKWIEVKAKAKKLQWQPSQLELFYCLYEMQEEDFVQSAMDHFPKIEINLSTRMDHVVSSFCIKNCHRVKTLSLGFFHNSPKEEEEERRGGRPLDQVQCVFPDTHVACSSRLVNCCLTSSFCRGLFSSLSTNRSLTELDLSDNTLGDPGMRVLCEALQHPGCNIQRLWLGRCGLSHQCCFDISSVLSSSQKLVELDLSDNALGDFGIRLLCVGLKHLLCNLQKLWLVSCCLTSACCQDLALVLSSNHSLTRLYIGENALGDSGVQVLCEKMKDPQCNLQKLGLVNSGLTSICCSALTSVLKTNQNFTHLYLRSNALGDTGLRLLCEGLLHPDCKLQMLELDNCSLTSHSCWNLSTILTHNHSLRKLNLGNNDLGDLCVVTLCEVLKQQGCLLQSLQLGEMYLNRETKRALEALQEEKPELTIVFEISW
ASSAY PROTOCOL: Inhibition of NLRP3 inflammasome activation in LPS-treated mouse BMDM cells assessed as Bz-ATP-stimulated IL-1beta level at 1 uM incubated for 30 mins followed by Bz-ATP stimulation for 30 mins by ELISA method
Format: cell-based
EXPERIMENTAL CONDITIONS: time 60.0 min
MEASUREMENT NAME: Activity (pg/mL)

Take a look at these entries with their results.
[[record]]
smiles_notation = "O=C(Nc1c2c(cc3c1CCC3)CCC2)[C@H](Cc1ccccc1)NS(=O)(=O)c1ccc([N+](=O)[O-])cc1"
unit_text = "pg/mL"
value_observed = 227

[[record]]
smiles_notation = "Nc1ccc(S(=O)(=O)NCC(=O)Nc2c3c(cc4c2CCC4)CCC3)cc1"
unit_text = "pg/mL"
value_observed = 348

[[record]]
smiles_notation = "Nc1ccc(S(=O)(=O)NCCC(=O)Nc2c3c(cc4c2CCC4)CCC3)cc1"
unit_text = "pg/mL"
value_observed = 220

[[record]]
smiles_notation = "CC(C)C[C@H](NS(=O)(=O)c1ccc([N+](=O)[O-])cc1)C(=O)Nc1c2c(cc3c1CCC3)CCC2"
unit_text = "pg/mL"
value_observed = 131

[[record]]
smiles_notation = "CC(C)C[C@H](NS(=O)(=O)c1ccc(N)cc1)C(=O)Nc1c2c(cc3c1CCC3)CCC2"
unit_text = "pg/mL"
value_observed = 194


P = Nc1ccc(S(=O)(=O)N[C@@H](Cc2ccccc2)C(=O)Nc2c3c(cc4c2CCC4)CCC3)cc1
Q = O=C(CNS(=O)(=O)c1ccc([N+](=O)[O-])cc1)Nc1c2c(cc3c1CCC3)CCC2
Of P and Q , whose reported Activity is the larger number? Response format: the label of the selected entry. Q
